Origin of values: patent US20260207767A1

pKd values by entry
- Target: T1, recombinant hPD-1 (construct not stated) (human, UniProt Q15116 25-167, limits assumed)
- T1 construct: also called huPD-1; Human PD1
- T1 sequence (Q15116 25-167 limits assumed): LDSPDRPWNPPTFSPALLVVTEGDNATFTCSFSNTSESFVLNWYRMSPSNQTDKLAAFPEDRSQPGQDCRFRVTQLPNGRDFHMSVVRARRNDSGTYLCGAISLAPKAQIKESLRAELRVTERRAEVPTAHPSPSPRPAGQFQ
- Assay comment: SPR, Ab captured, PD-1 analyte
# pKd = -log10(concentration in molar units)

Completed entries (count: 2):
- Binder: "ZJN296-3 (antibody, V domains shown, human IgG1; also called GH + T073R, GL) VH: QVQLVQSGAEVKKPGASVKVSCKASGYDFTSHWMHWVRQAPGQGLEWMGAIDPSDSYTNYNQKFKGRVTMTTDRSTSTAYMELRSLRSDDTAVYYCARSPFDYWGQGTTVTVSS VL: DIQMTQSPSSLSASVGDRVTITCKASQDVSTAVAWYQQKPGKAPKLLIYSASYRYTGVPSRFSGSGSGTDFTFTISSLQPEDIATYYCQQHYSFPFTFGQGTKLEIK"
  pKd: 8.18
- Binder: "ZJN296-6 (antibody, V domains shown, human IgG1; also called GH + T071V + T073R, GL) VH: QVQLVQSGAEVKKPGASVKVSCKASGYDFTSHWMHWVRQAPGQGLEWMGAIDPSDSYTNYNQKFKGRVTMTVDRSTSTAYMELRSLRSDDTAVYYCARSPFDYWGQGTTVTVSS VL: DIQMTQSPSSLSASVGDRVTITCKASQDVSTAVAWYQQKPGKAPKLLIYSASYRYTGVPSRFSGSGSGTDFTFTISSLQPEDIATYYCQQHYSFPFTFGQGTKLEIK"
  pKd: 8.49

Next up:
INPUT: Please report pKd for the following binder: ZJN296-2 (antibody, V domains shown, human IgG1; also called GH + T071V, GL) VH: QVQLVQSGAEVKKPGASVKVSCKASGYDFTSHWMHWVRQAPGQGLEWMGAIDPSDSYTNYNQKFKGRVTMTVDTSTSTAYMELRSLRSDDTAVYYCARSPFDYWGQGTTVTVSS VL: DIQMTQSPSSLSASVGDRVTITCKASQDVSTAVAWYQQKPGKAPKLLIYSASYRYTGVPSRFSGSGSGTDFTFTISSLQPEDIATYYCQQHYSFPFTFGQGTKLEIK
OUTPUT: 8.24
